# Tested on: THRa homodimer (NR concentration 90 nM)
# METHOD: PBM binding z-score (relative to random genomic background probes); higher = stronger binding; sequences stand for … in GC…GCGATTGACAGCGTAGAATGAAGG
Please note: MET applies when PBM binding z-score is 0.6 or greater, and NOT MET applies otherwise.

Worked set:
[[record]]
residue_codes = "GCTCGGCGGACAAGGTCAGAGCTTTGTCCGTAGA"
label_class = "NOT MET"

[[record]]
residue_codes = "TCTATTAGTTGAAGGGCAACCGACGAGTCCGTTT"
label_class = "NOT MET"

[[record]]
residue_codes = "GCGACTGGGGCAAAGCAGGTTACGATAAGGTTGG"
label_class = "NOT MET"

[[record]]
residue_codes = "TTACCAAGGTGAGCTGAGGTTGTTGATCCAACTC"
label_class = "NOT MET"

[[record]]
residue_codes = "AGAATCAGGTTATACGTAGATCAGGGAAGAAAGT"
label_class = "MET"


Prompt line: Say whether `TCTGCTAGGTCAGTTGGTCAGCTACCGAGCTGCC` shows PBM binding z-score of 0.6 or more.
Response line: NOT MET

Prompt line: Evaluate `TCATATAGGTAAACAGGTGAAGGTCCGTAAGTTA` : PBM binding z-score at minimum 0.6?
Response line: NOT MET

Prompt line: Identify whether the reported PBM binding z-score of the following sequence is 0.6 or greater: `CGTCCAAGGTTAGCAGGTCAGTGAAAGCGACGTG`
Response line: MET

Prompt line: Identify whether the reported PBM binding z-score of the following sequence is 0.6 or greater: `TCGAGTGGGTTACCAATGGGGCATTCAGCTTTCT`
Response line: NOT MET
